- condition: in acetone, 317.95 K
readout_label: solubility (mole fraction)

For record "c1ccc2c(c1)sc1ccccc12" the listed solubility (mole fraction) is 0.156

----------
- condition: in acetone, 314.65 K
readout_label: solubility (mole fraction)
I'd appreciate a reply containing only the number, no unit.

For record "c1ccc2c(c1)sc1ccccc12" the listed solubility (mole fraction) is 0.136

----------
- condition: in DMF, 289.45 K
readout_label: solubility (mole fraction)
I'd appreciate a reply containing only the number, no unit.

For record "c1ccc2c(c1)sc1ccccc12" the listed solubility (mole fraction) is 0.113

----------
- condition: in DMF, 310.15 K
readout_label: solubility (mole fraction)
I'd appreciate a reply containing only the number, no unit.

For record "c1ccc2c(c1)sc1ccccc12" the listed solubility (mole fraction) is 0.206
